EXPERIMENTAL_SYSTEM: recombinant IL4I1 (Homo sapiens)
Sequence (Q96RQ9 22-567): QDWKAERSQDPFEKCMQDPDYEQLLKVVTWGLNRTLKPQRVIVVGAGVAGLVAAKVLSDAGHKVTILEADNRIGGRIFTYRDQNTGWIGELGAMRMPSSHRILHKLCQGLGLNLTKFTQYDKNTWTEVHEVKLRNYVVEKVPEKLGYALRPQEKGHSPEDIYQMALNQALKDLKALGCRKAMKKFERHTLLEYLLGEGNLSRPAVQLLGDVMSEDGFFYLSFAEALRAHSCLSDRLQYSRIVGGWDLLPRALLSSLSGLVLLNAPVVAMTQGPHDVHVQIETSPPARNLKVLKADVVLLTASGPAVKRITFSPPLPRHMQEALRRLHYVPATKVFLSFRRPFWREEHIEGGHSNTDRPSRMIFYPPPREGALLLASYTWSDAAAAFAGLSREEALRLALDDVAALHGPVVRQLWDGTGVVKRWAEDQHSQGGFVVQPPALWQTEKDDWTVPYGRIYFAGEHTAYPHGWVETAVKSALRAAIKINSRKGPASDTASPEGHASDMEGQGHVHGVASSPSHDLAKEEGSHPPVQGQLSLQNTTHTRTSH
ASSAY_NAME: IL4I1 Enzymatic Assay (Amplex Red/HRP coupled detection of H2O2, fluorescence)
PROTOCOL_CONDITIONS: 1 nM recombinant IL4I1; four-hour pre-incubation with compound; 1 mM each Phe, Tyr, Trp; ten-point titration
From the text: Interleukin 4 inducible protein 1 (IL4I1) is an L-amino oxidase that catalyzes the oxidation of aromatic residues (Phe, Trp and Tyr): L-amino acid+H2O+O2→2-oxo acid+NH3+H2O2. […] In this assay, the hydrogen peroxide generated by IL4I1 is then detected through a coupled reaction with Amplex Red (10-acetyl-3,7-dihydroxyphenoxazine) and […] (HRP) to produce Resorufin product that could be detected in the form of fluorescence signals. […]
pEC50: −log10 of the molar value.
MEASURED_ATTRIBUTE: pEC50

Example entries begin here.
> print(dat)
                                   compound               experimental.system  result.number
1  O=C(NCc1nnc(-c2ccncc2)s1)c1cn(CC(F)(F)F)nn1 [Example 249]  recombinant IL4I1 (Homo sapiens)           7.82
2  C[C@H]1OCC[C@H]1Cn1cc(C(=O)NCc2nnc(-c3ccccc3)s2)nn1 [Example 205]  recombinant IL4I1 (Homo sapiens)           7.48

I = CC1CC1n1cc(C(=O)NCc2nnc(-c3ccccc3)s2)nn1 (single isomer, unassigned) [Example 132]
II = Cc1ccc(-n2cc(C(=O)NCc3ccc(-c4ccccc4F)nn3)nn2)c(C)n1 [Example 116]
Prompt: I would appreciate it if you could say which entry, I or II , has the lower pEC50 value. Let me know the label of the one you choose.
Completion: II
(II: 7.13, I: 8.15)
